- studySystem: Histamine H1 receptor (Cavia porcellus) (UniProt P31389)
- Sequence (P31389 whole entry): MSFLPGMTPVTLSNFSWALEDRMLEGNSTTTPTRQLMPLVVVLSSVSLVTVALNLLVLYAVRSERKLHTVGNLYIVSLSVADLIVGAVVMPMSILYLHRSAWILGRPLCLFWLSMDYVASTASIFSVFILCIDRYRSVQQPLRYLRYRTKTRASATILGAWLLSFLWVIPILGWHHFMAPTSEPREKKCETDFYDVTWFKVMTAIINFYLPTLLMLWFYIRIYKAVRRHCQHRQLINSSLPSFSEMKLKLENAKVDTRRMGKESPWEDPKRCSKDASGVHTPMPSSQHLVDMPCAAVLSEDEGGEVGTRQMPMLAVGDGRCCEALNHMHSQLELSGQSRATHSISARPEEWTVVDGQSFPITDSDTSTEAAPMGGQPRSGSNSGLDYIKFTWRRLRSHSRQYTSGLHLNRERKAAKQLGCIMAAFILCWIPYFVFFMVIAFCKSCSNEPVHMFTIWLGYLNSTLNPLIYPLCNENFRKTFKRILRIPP
- experimentSummary: In vitro inhibitory activity against histamine H1 receptor in guinea-pig ileum at 0.1 uM
- Type: tissue-based
Kindly supply the reported inhibition values for the records listed here.
The response must be a number in % with no trailing unit.

Q) Look up inhibition for this compound: O=C(O)COC(CCc1ccccc1)CN1CCN(C(c2ccccc2)c2ccc(Cl)cc2)CC1 (stereo not given)
A) 11

Q) How about CC(CN1CCN(C(c2ccccc2)c2ccc(Cl)cc2)CC1)(OCC(=O)O)c1ccccc1 (stereo not given) ?
A) 12.5

Q) How about O=C(O)COCCN1CCN(C(c2ccccc2)c2ccc(Cl)cc2)CC1 (stereo not given) ?
A) 50.7

Q) How about CCC(OCCN1CCN(C(c2ccccc2)c2ccc(Cl)cc2)CC1)C(=O)O (stereo not given) ?
A) 10.2

Q) How about COc1ccc(COCCN2CCN(C(c3ccccc3)c3ccc(Cl)cc3)CC2)cc1 (stereo not given) ?
A) 78.5

Q) How about COc1cccc(COCCN2CCN(C(c3ccccc3)c3ccc(Cl)cc3)CC2)c1 (stereo not given) ?
A) 33

Q) How about Clc1ccc(C(c2ccccc2)N2CCN(CCOCc3cccc4ccccc34)CC2)cc1 (stereo not given) ?
A) 20

Q) How about CC(C)(COCC(=O)O)CN1CCN(C(c2ccccc2)c2ccc(Cl)cc2)CC1 (stereo not given) ?
A) 42.9

Q) How about O=C(O)COC(CCN1CCN(C(c2ccccc2)c2ccc(Cl)cc2)CC1)c1ccccc1 (stereo not given) ?
A) 52.7

Q) How about O=C(O)Cc1ccc(COCCN2CCN(C(c3ccccc3)c3ccc(Cl)cc3)CC2)cc1 (stereo not given) ?
A) 28.4
